Origin of measurements: patent US20250346679A1

- ASSAYED_TARGET: T1, hCD137-mFc-Avi (human; mouse, UniProt Q07011 24-186, biotin on the Avi sequence where the biotinylated form was used)
- T1 construct: also called human CD137-mFc-Avi; dimeric human CD137; not shown: mouse IgG2a Fc domain (mIgG2a Fc)
- T1 sequence (Q07011 24-186): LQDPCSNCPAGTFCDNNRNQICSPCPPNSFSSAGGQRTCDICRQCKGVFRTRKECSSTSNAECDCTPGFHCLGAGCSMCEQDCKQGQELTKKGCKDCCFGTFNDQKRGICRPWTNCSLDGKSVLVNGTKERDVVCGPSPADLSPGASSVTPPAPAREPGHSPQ
- ASSAY_EXPLANATION: flow cytometry of yeast clones with 10 nM dimeric human antigen
ENDPOINT_LABEL: % APC positive cells

| BINDER | % APC positive cells |
| --- | --- |
| FS22-053-008 Fcab clone displayed on yeast (designed binder, yeast display clone, FS22-053 EF library) GQPREPQVYTLPPSRDELNPPYLFSNQVSLTCLVKGFYPSDIAVEWESNGQPENNYKTTPPVLDSDGSFFLYSKLTVDYWRWLEGNVFSCSVMHEALHNHYTQKSLSLSPG | > 30% |
| FS22-053-010 Fcab clone displayed on yeast (designed binder, yeast display clone, FS22-053 EF library) GQPREPQVYTLPPSRDELNPPYLFSNQVSLTCLVKGFYPSDIAVEWESNGQPENNYKTTPPVLDSDGSFFLYSKLTVDYMRWLDGNVFSCSVMHEALHNHYTQKSLSLSPG | > 30% |
| FS22-053-012 Fcab clone displayed on yeast (designed binder, yeast display clone, FS22-053 EF library) GQPREPQVYTLPPSRDELNPPYLFSNQVSLTCLVKGFYPSDIAVEWESNGQPENNYKTTPPVLDSDGSFFLYSKLTVDHMRWLEGNVFSCSVMHEALHNHYTQKSLSLSPG | > 30% |

Exam item: Item under review: FS22-172-006 Fcab clone displayed on yeast (designed binder) GQPREPQVYTLPPSRDELRKYYPPYNQLSLTCLVKGFYPSDIAVEWESNGQPENNYKTTPPVLDSDGSFFLYSKLTVGADRWLEGNVFSCSVMHEALHNHYTQKSLSLSPG . Reported % APC positive cells?
Marked response: > 10%
